- Test system: 996289-038-R-J1-PDC complex spheroid viability;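 further: spheroids exposed to the agents for 7 days before readout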
- method_notes: Anticancer human tumor 996289-038-R-J1-PDC patient-derived colon adenocarcinoma cell line growth inhibition [CLK]
- applied_conditions: second compound 10 µM; first compound 0.0316 µM; active compounds read low
measurement_name: viability, T/C (%)
The answer is to be given in %; state only the numeric part.

CCCS(=O)(=O)Nc1ccc(F)c(C(=O)c2c[nH]c3ncc(-c4ccc(Cl)cc4)cc23)c1F + CN1CCN(c2cc(C(=O)Nc3cc4cc(-c5cnn(C)c5)ccc4cn3)ccn2)CC1; 1.91
CCc1c2c(nc3ccc(O)cc13)-c1cc3c(c(=O)n1C2)COC(=O)[C@]3(O)CC + CNC(=O)c1ccc(Nc2nc(OC3CCCC3)c3c(-c4ccc5nc(C)oc5c4)c[nH]c3n2)c(OC)c1; 38.9
COc1ccc([C@@H](O)c2cc(-c3ncnc4cc(N5CCOCC5)ccc34)c(F)cc2Cl)nn1 + CN1CCN(c2cc(C(=O)Nc3cc4cc(-c5cnn(C)c5)ccc4cn3)ccn2)CC1; 0.92
CCN1CCN(Cc2ccc(Nc3ncc(F)c(-c4cc(F)c5nc(C)n(C(C)C)c5c4)n3)nc2)CC1 + CNC(=O)c1ccc(Nc2nc(OC3CCCC3)c3c(-c4ccc5nc(C)oc5c4)c[nH]c3n2)c(OC)c1; 61.3
COc1cccc2c1C(=O)c1c(O)c3c(c(O)c1C2=O)CC(O)(C(=O)CO)CC3OC1CC(N)C(O)C(C)O1 (stereo not given) + CNC(=O)c1ccc(Nc2nc(OC3CCCC3)c3c(-c4ccc5nc(C)oc5c4)c[nH]c3n2)c(OC)c1; 53.1
Nc1ccccc1NC(=O)c1ccc(CNC(=O)OCc2cccnc2)cc1 + CNC(=O)c1ccc(Nc2nc(OC3CCCC3)c3c(-c4ccc5nc(C)oc5c4)c[nH]c3n2)c(OC)c1; 60.8

Q: Form field: reported viability, T/C of C=CC(=O)N1CCN(c2nc(=O)n(-c3c(C)ccnc3C(C)C)c3nc(-c4c(O)cccc4F)c(F)cc23)C(C)C1 (stereo not given) + CN1CCN(c2cc(C(=O)Nc3cc4cc(-c5cnn(C)c5)ccc4cn3)ccn2)CC1
A: 0.33

Q: Tell me the measured viability, T/C of CC(CO)NC(=O)c1cc(-c2ccc(Cl)cc2)nn(-c2cnn(C)c2)c1=O (stereo not given) + CNC(=O)c1ccc(Nc2nc(OC3CCCC3)c3c(-c4ccc5nc(C)oc5c4)c[nH]c3n2)c(OC)c1 , please.
A: 52.4

Q: I would be grateful if you could share the reported viability, T/C for O=C(c1cc(Cc2n[nH]c(=O)c3ccccc23)ccc1F)N1CCN(C(=O)C2CC2)CC1 + CNC(=O)c1ccc(Nc2nc(OC3CCCC3)c3c(-c4ccc5nc(C)oc5c4)c[nH]c3n2)c(OC)c1 .
A: 62.6

Q: Look up viability, T/C for this compound: CC(CO)NC(=O)c1cc(-c2ccc(Cl)cc2)nn(-c2cnn(C)c2)c1=O (stereo not given) + CN1CCN(c2cc(C(=O)Nc3cc4cc(-c5cnn(C)c5)ccc4cn3)ccn2)CC1
A: 1.12

Q: Request the reported viability, T/C associated with O=c1[nH]cc(F)c(=O)[nH]1 + CNC(=O)c1ccc(Nc2nc(OC3CCCC3)c3c(-c4ccc5nc(C)oc5c4)c[nH]c3n2)c(OC)c1
A: 60.4

Q: Please look up its viability, T/C: CC1COCCN1c1cc(C2(S(C)(=N)=O)CC2)nc(-c2ccnc3[nH]ccc23)n1 (stereo not given) + CNC(=O)c1ccc(Nc2nc(OC3CCCC3)c3c(-c4ccc5nc(C)oc5c4)c[nH]c3n2)c(OC)c1
A: 59.3

Q: // lookup viability, T/C for CC(=O)O[C@H]1C(=O)[C@@]2(C)[C@H]([C@H](OC(=O)c3ccccc3)[C@]3(O)C[C@H](OC(=O)[C@H](O)[C@@H](NC(=O)c4ccccc4)c4ccccc4)C(C)=C1C3(C)C)[C@]1(OC(C)=O)CO[C@@H]1C[C@@H]2O + CNC(=O)c1ccc(Nc2nc(OC3CCCC3)c3c(-c4ccc5nc(C)oc5c4)c[nH]c3n2)c(OC)c1
A: 56.7

Q: So what's the measured viability, T/C for this one? CC(Nc1ccc2c(c1)OCCn1cc(N3C(=O)OCC3C(F)F)nc1-2)C(N)=O (stereo not given) + CN1CCN(c2cc(C(=O)Nc3cc4cc(-c5cnn(C)c5)ccc4cn3)ccn2)CC1
A: 1.51

Q: Reported viability, T/C for CC(Nc1ccc2c(c1)OCCn1cc(N3C(=O)OCC3C(F)F)nc1-2)C(N)=O (stereo not given) + CNC(=O)c1ccc(Nc2nc(OC3CCCC3)c3c(-c4ccc5nc(C)oc5c4)c[nH]c3n2)c(OC)c1 : what is it?
A: 46.7

Q: What value of viability, T/C has been recorded for this entry: C=C(F)C(=O)N1CCN(c2nc(OCC3CCCN3C)nc3c2CCN(c2cccc4cccc(Cl)c24)C3)CC1CC#N (stereo not given) + CNC(=O)c1ccc(Nc2nc(OC3CCCC3)c3c(-c4ccc5nc(C)oc5c4)c[nH]c3n2)c(OC)c1
A: 61.9

Q: For the compound C=C(F)C(=O)N1CCN(c2nc(OCC3CCCN3C)nc3c2CCN(c2cccc4cccc(Cl)c24)C3)CC1CC#N (stereo not given) + CN1CCN(c2cc(C(=O)Nc3cc4cc(-c5cnn(C)c5)ccc4cn3)ccn2)CC1 , what viability, T/C is on record?
A: 0.4

Q: What does the data say about its viability, T/C? Entry: Nc1ccn(C2OC(CO)C(O)C2(F)F)c(=O)n1 (stereo not given) + CN1CCN(c2cc(C(=O)Nc3cc4cc(-c5cnn(C)c5)ccc4cn3)ccn2)CC1
A: 0.95

Q: Field request: viability, T/C | item: C#Cc1c(F)ccc2cc(O)cc(-c3ncc4c(N5CC6CCC(C5)N6)nc(OCC56CCCN5CC(F)C6)nc4c3F)c12 (stereo not given) + CNC(=O)c1ccc(Nc2nc(OC3CCCC3)c3c(-c4ccc5nc(C)oc5c4)c[nH]c3n2)c(OC)c1
A: 28.7

Q: viability, T/C lookup needed for CCN1CCN(Cc2ccc(Nc3ncc(F)c(-c4cc(F)c5nc(C)n(C(C)C)c5c4)n3)nc2)CC1 + CN1CCN(c2cc(C(=O)Nc3cc4cc(-c5cnn(C)c5)ccc4cn3)ccn2)CC1 , thanks.
A: 0.57

These measurements were taken from PubChem BioAssay AID2060600.
